Source listed as patent US20220184120A1.

ASSAY SYSTEM: T1, C-10 peptide (PSMGFR minus 10 amino acids from the C-terminus)
T1 construct: also called C-10 PSMGFR; PSMGFR C-10
T1 peptide: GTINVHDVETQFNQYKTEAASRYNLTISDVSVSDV
MEASUREMENT DESCRIPTION: ELISA (FIG. 201C)
ASSAY ENDPOINT: binding result

BINDER	RESULT
B2 mouse monoclonal antibody (antibody, V domains shown, raised against PSMGFR; built from framework and CDR entries) VH: EVVLVESGGGLVEPGGSLKLSCVASGFAFSTFAMSWIRQTPEKRLEWVAAISNGGGYTYYPDTLKGRFSISRDNAKNTLYLQMSSLRSEDTAVYYCARRYYDLYFDLWGRGTSLIVSS VL: DILMTQTPLSLPVSLGDQASISCRSSQNIVHSNGNTYLEWYLQKPGQSPKLLIYKVSNRFSGVPDRFSGSGSGTDFTLKISRVEAEDLGVYYCFQDSHVPLTFGAGTRLELK	no binding
H11 mouse monoclonal antibody (antibody, V domains shown, raised against PSMGFR; built from framework and CDR entries) VH: EVVLVESGGGLVEPGGSLKLSCVASGFAFSTFAMSWIRQTPEKRLEWVAAISNGGGYTYYPDTLKGRFTISRDNAKNTLYLQMSSLRSEDTAVYYCARRYYDLYFDLWGQGTSLIVSS VL: DILMTQTPLSLPVSLGDQASISCRSSQNIVHSNGNTYLEWYLQKPGQSPKLLIYKVSNRFSGVPDRFSGSGSGTDFTLKISRVEAEDLGVYYCFQDSHVPLTFGAGTRLELK	no binding
8C7F3 mouse monoclonal antibody (antibody, V domains shown, raised against PSMGFR; built from framework and CDR entries) VH: EVMLVESGGGLVKPGGSLKLSCAASGFTFSTYAMSWVRQTPEKRLEWVAAISNGGGYTYYPDSLKGRFTISRDNAKNTLYLQMSSLRSEDTATYYCARRYYDHYFDYWGQGTALTVSS VL: IIVLTQSPASLAVSLGQRATISCRASESVATYGNNFMQWYQQKPGQPPKLLIYLASTLDSGVPARFSGSGSRTDFTLTIDPVEADDAATYYCQQNNEDPPTFGGGTKLEIK	no binding
